Tested on: LEGO organoid PT (PTEN-/-; TP53-/-)
Protocol: bioluminescence (viable cell) signal fold change after vs before treatment, normalised to DMSO (ratio); higher = more tumour cell growth / less inhibition
Condition Notes: 10 µM; treatment time 6 days
# if value of bioluminescence reaches 1, tag Satisfied; if it stays below, tag Not satisfied

{"Compound": "COc1ccc2c(c1)c(CC(=O)O)c(C)n2C(=O)c1ccc(Cl)cc1", "Class": "Satisfied"}
{"Compound": "Nc1ncn([C@H]2C[C@H](O)[C@@H](CO)O2)c(=O)n1", "Class": "Satisfied"}
{"Compound": "O=C([O-])Cc1ccccc1Nc1c(Cl)cccc1Cl.[Na+] [Diclofenac sodium]", "Class": "Not satisfied"}

### Prompt Has Cc1cnc(NC(=O)C2=C(O)c3ccccc3S(=O)(=O)N2C)s1 a recorded bioluminescence greater than or equal to 1?
### Response Not satisfied

### Prompt I'd appreciate it if you could say whether CC(C)c1c(C(=O)Nc2ccccc2)c(-c2ccccc2)c(-c2ccc(F)cc2)n1CC[C@@H](O)C[C@@H](O)CC(=O)[O-].CC(C)c1c(C(=O)Nc2ccccc2)c(-c2ccccc2)c(-c2ccc(F)cc2)n1CC[C@@H](O)C[C@@H](O)CC(=O)[O-].[Ca+2] has bioluminescence at least equal to 1.
### Response Satisfied

### Prompt Is reported bioluminescence greater than or equal to 1 here: CCOC(=O)c1ccc(C#Cc2ccc3c(c2)C(C)(C)CCS3)nc1
### Response Satisfied

### Prompt Test whether the compound NCCS(=O)(=O)O records bioluminescence of 1 or higher.
### Response Satisfied

### Prompt Kindly determine if bioluminescence recorded for O=C(CCCCCCC(=O)Nc1ccccc1)NO is above or exactly 1.
### Response Satisfied

### Prompt Does the reported bioluminescence for CS(=O)(=O)CCNCc1ccc(-c2ccc3ncnc(Nc4ccc(OCc5cccc(F)c5)c(Cl)c4)c3c2)o1 fall at or above the 1 mark?
### Response Satisfied

### Prompt Could you please find out whether CC(C)(S)[C@@H](N)C(=O)O has bioluminescence that meets 1 or exceeds it?
### Response Not satisfied

### Prompt Textbook exercise: given the entry O=NN(CCCl)C(=O)NC1CCCCC1 , state whether its bioluminescence is greater than or equal to 1.
### Response Satisfied

### Prompt Determine whether measured bioluminescence meets or exceeds 1 for Nc1nc(NC2CC2)c2ncn([C@H]3C=C[C@@H](CO)C3)c2n1
### Response Satisfied

### Prompt Has CC(C)CN(C[C@@H](O)[C@H](Cc1ccccc1)NC(=O)O[C@H]1CCOC1)S(=O)(=O)c1ccc(N)cc1 a recorded bioluminescence greater than or equal to 1?
### Response Not satisfied

### Prompt Quick check, bioluminescence >= 1? O=C(NC1CCN(CCCCC2(C(=O)NCC(F)(F)F)c3ccccc3-c3ccccc32)CC1)c1ccccc1-c1ccc(C(F)(F)F)cc1 [Lomitapide]
### Response Not satisfied

### Prompt Check if bioluminescence >= 1 (inclusive). Item: CCCNS(=O)(=O)Nc1ncnc(OCCOc2ncc(Br)cn2)c1-c1ccc(Br)cc1
### Response Satisfied

### Prompt Threshold query (bioluminescence >= 1) on CC(C)Oc1ccc(-c2nc(-c3cccc4c3CC[C@@H]4NCCO)no2)cc1C#N
### Response Not satisfied

### Prompt Hi, just wondering whether NC(=O)OCC(COC(N)=O)c1ccccc1 [Felbamate] shows bioluminescence of 1 or higher.
### Response Not satisfied

----------
Tested on: LEGO organoid PTCC (PTEN-/-; TP53-/-; CDKN2A-/-; CDKN2B-/-)
Protocol: bioluminescence (viable cell) signal fold change after vs before treatment, normalised to DMSO (ratio); higher = more tumour cell growth / less inhibition
Condition Notes: 10 µM; treatment time 6 days
# Lookup of reported bioluminescence keyed by entry
Answer using only a numeral; do not append any unit.

// known answers, use as guide
{"Compound": "CC/C(=C(/CC)c1ccc(O)cc1)c1ccc(O)cc1 [Diethylstilbestrol]", "Property": "bioluminescence", "Value Measured": 0.673}
{"Compound": "CCCC(CCC)C(=O)O [Valproic Acid]", "Property": "bioluminescence", "Value Measured": 0.784}

Sure, the documented bioluminescence for Nc1cccc2c1C(=O)N(C1CCC(=O)NC1=O)C2=O (centres undefined) [Pomalidomide] is 2.56

Entry under test: CN[C@H](CC(C)C)C(=O)N[C@H]1C(=O)N[C@@H](CC(N)=O)C(=O)N[C@H]2C(=O)N[C@H]3C(=O)N[C@H](C(=O)N[C@H](C(=O)O)c4cc(O)cc(O)c4-c4cc3ccc4O)[C@H](O)c3ccc(c(Cl)c3)Oc3cc2cc(c3O[C@@H]2O[C@H](CO)[C@@H](O)[C@H](O)[C@H]2O[C@H]2C[C@](C)(N)[C@H](O)[C@H](C)O2)Oc2ccc(cc2Cl)[C@H]1O [Vancomycin] . Its bioluminescence was 0.957

// bioluminescence lookup, compound = NC(=O)OCC(COC(N)=O)c1ccccc1 [Felbamate] , result: 3.87

Summary for this compound, O.O.O.O.O.O.O.O=C1CN(/N=C/c2ccc(-c3ccc([N+](=O)[O-])cc3)o2)C(=O)[N-]1.O=C1CN(/N=C/c2ccc(-c3ccc([N+](=O)[O-])cc3)o2)C(=O)[N-]1.[Na+].[Na+] [Dantrolene sodium hemiheptahydrate] : bioluminescence is 2.4

bioluminescence reading for O.O.O.O.[Li][O]C(=O)CC(O)(CC(=O)[O][Li])C(=O)[O][Li] [Lithium citrate tetrahydrate] : 0.787

bioluminescence reported for this compound NC(=O)c1cn(Cc2c(F)cccc2F)nn1 [Rufinamide] : 2.69

Noted for Cc1cnc(NC(=O)C2=C(O)c3ccccc3S(=O)(=O)N2C)s1 [Meloxicam] : its bioluminescence reads 1.15

----------
Tested on: LEGO organoid PTN (PTEN-/-; TP53-/-; NF1-/-)
Protocol: bioluminescence (viable cell) signal fold change after vs before treatment, normalised to DMSO (ratio); higher = more tumour cell growth / less inhibition
Condition Notes: 10 µM; treatment time 6 days
The following molecules are listed with their measured bioluminescence values.
# output: bare number, no unit

The examples below pair each entry with its known result.
{"Molecule": "CCCc1nc(C)c2c(=O)[nH]c(-c3cc(S(=O)(=O)N4CCN(CC)CC4)ccc3OCC)nn12", "bioluminescence": 1.29}
{"Molecule": "CCN(CC)CC(=O)Nc1c(C)cccc1C.Cl [Lidocaine hydrochloride]", "bioluminescence": 1.08}
{"Molecule": "NC(=O)c1cnccn1 [Pyrazinamide]", "bioluminescence": 1.72}
{"Molecule": "CS(=O)(=O)CCNCc1ccc(-c2ccc3ncnc(Nc4ccc(OCc5cccc(F)c5)c(Cl)c4)c3c2)o1.Cc1ccc(S(=O)(=O)O)cc1.Cc1ccc(S(=O)(=O)O)cc1 [Lapatinib Ditosylate]", "bioluminescence": 0.778}

// bioluminescence value for CCc1nn(CCCN2CCN(c3cccc(Cl)c3)CC2)c(=O)n1CCOc1ccccc1.Cl [Nefazodone hydrochloride] : 0.52

// bioluminescence value for Cl.N=C(N)NC(=O)Cc1c(Cl)cccc1Cl [Guanfacine hydrochloride] : 0.496

// sample CSCC[C@@H](N)C(=O)O , its bioluminescence was 1.35

Consider Nc1nc(Cl)nc2c1ncn2[C@H]1C[C@H](O)[C@@H](CO)O1 . Its measured bioluminescence is 1.05

Record summary for Clc1ccc(COC(Cn2ccnc2)c2ccc(Cl)cc2Cl)c(Cl)c1.O=[N+]([O-])O (stereo not given) [Miconazole nitrate] : reported bioluminescence = 1.21

Input NC(=O)N1c2ccccc2CC(=O)c2ccccc21 [Oxcarbazepine] . Output bioluminescence: 1.05

----------
System: LEGO organoid PTN (PTEN-/-; TP53-/-; NF1-/-)
Protocol: bioluminescence (viable cell) signal fold change after vs before treatment, normalised to DMSO (ratio); higher = more tumour cell growth / less inhibition
Condition Notes: 10 µM; treatment time 6 days
Property: bioluminescence
// no unit string in output, number only

{"Compound": "C[C@@H](c1ncncc1F)[C@](O)(Cn1cncn1)c1ccc(F)cc1F", "Subject Of Test": "LEGO organoid PTN (PTEN-/-; TP53-/-; NF1-/-)", "Value Measured": 1.46}
{"Compound": "CCCN(CCc1cccs1)[C@H]1CCc2c(O)cccc2C1", "Subject Of Test": "LEGO organoid PTN (PTEN-/-; TP53-/-; NF1-/-)", "Value Measured": 1.77}
{"Compound": "C[C@]12C=CC(=O)C=C1CC[C@@H]1[C@@H]2[C@@H](O)C[C@@]2(C)[C@H]1CC[C@]2(O)C(=O)CO", "Subject Of Test": "LEGO organoid PTN (PTEN-/-; TP53-/-; NF1-/-)", "Value Measured": 1.71}
{"Compound": "CN(C)CCC=C1c2ccccc2COc2ccccc21.Cl [Doxepin hydrochloride]", "Subject Of Test": "LEGO organoid PTN (PTEN-/-; TP53-/-; NF1-/-)", "Value Measured": 0.742}
{"Compound": "Cl.O=C1c2cccc3c2[C@H](CCC3)CN1[C@@H]1CN2CCC1CC2 [Palonosetron hydrochloride]", "Subject Of Test": "LEGO organoid PTN (PTEN-/-; TP53-/-; NF1-/-)", "Value Measured": 1.4}

Sample CO[C@H]1C(=O)[C@]2(C)[C@@H](OC)C[C@H]3OC[C@@]3(OC(C)=O)[C@H]2[C@H](OC(=O)c2ccccc2)[C@]2(O)C[C@H](OC(=O)[C@H](O)[C@@H](NC(=O)OC(C)(C)C)c3ccccc3)C(C)=C1C2(C)C ; bioluminescence observed: 0.429

The measured bioluminescence associated with N[C@@H]1CONC1=O reads 1.69
